System: M14 melanoma
testName: NCI tumour cell line growth inhibition, 48 h
Would you mind telling me the reported TGI of each entry?
One number for each entry, in µM.

O=C1NN2CC(c3ccccc3)=NN=C2c2ccccc21    48.9
O=C(O)c1ccc(N(/C=C/C(=O)C(F)(F)F)Cc2ccc(Cl)cc2)cc1    62.7
COc1cc2nc3n(c2cc1OC)C(O)c1c(Cl)nc(SC)nc1S3 (configuration not stated)    21.8
CN(C)CCNC(=O)c1cc2c3cc(Cl)ccc3[nH]c2c2ncccc12    3.68
CN(C)CC1CC/C(=C\c2ccc(Cl)c(Cl)c2)C1=O (configuration not stated)    48.5
CC(C)=CCC/C(C)=C/CC/C(C)=C/CSC[C@H](NC(=O)CCCCCN1CCN(C)CC1)C(=O)NC1CCCCCC1    3.43
O=C1C=CC2(C=C1)O[C@H](COCc1ccccc1)[C@@H](COCc1ccccc1)O2    3.88
COc1cc2c(c3oc(-c4ccc(O)cc4)c(O)c(=O)c13)CCC(C)(C)O2    0.523

// for each compound below, give its TGI
1. CC1=C(CCCOC(=O)[C@H](N)CC(C)C)C2=C(C)C3(CC3)[C@@](C)(O)C(=O)C2=C1
2. NS(=O)(=O)c1ccc(NC(=S)NC(=O)Nc2ccc(Cl)c(Cl)c2)cc1
3. CC(=O)N1C/C(=C\c2ccccc2)C(=O)/C(=C/c2ccccc2)C1

[4.41, 20.9, 17.9]

---

System: CAKI-1 renal
testName: NCI tumour cell line growth inhibition, 48 h; in the data active = GI50 below about 0.43 µM; inactive = the rest
Classes to choose from: yes for active, no for inactive

The examples below pair each entry with its known result.
C[C@@H]1CN2[C@H]3[C@@H]1CC[C@]31CCC(=O)O[C@]1(C)[C@H]1CC[C@H]3CCC=C3[C@@H]12    no
COC(=O)[C@@H](C)C[C@H](Cc1ccccc1)NC(=O)c1nc([C@@H](C[C@H](C(C)C)N(C)C(=O)[C@@H](NC(=O)[C@H]2C[C@H](O)CCN2C)C(C)C)OC(C)=O)sc1C(C)C    yes
CCCCn1c(=O)[nH]c(N)c([C@@H]2c3c([nH]c(=O)n(CCCC)c3=O)Oc3ccc4ccccc4c32)c1=O    no
N#CCCNc1nonc1-c1nc2ccccc2n1CC(=O)c1ccc(N)cc1    yes

Name the outcome recorded for "COc1ccc(-c2nc3sc(-c4cc(OC)c(OC)c(OC)c4)nn3c2/C=C2/C(=O)Nc3ccc(F)cc32)cc1" in the assay.
no

---

Test system: BT-549 breast
testName: NCI tumour cell line growth inhibition, 48 h
metricName: TGI

COc1ccc2c(c1)/C(=C/c1c(O)[nH]c(=S)[nH]c1=O)C=N2    > 100 µM
CCN1CCN(CCC(=O)Nc2cccc(-n3cc(-c4ccncc4)c(-c4ccc(Cl)c(OC)c4)n3)c2)CC1    4.43 µM
CN(C)CCNc1ccc(NCC[N+](C)(C)Cc2ccc([N+](=O)[O-])cc2)c2c1C(=O)c1c(O)ccc(O)c1C2=O    40.9 µM
CN(Cc1cnc2nc(N)nc(N)c2n1)c1ccc(C(=O)NCCCS(=O)(=O)O)cc1    > 100 µM
O=C(O)c1cc(CCc2ccc(O)c(O)c2)ccc1O    > 100 µM

// for each compound below, give its TGI
1. COc1ccc(N2C(=O)c3cc([N+](=O)[O-])cnc3S2(=O)=O)cc1
2. O=C(CNc1ccccc1[N+](=O)[O-])Nn1cnc2ccc(S(=O)(=O)Nc3ccccc3[N+](=O)[O-])cc2c1=O

1: > 100 µM; 2: > 100 µM

---

System: M14 melanoma
testName: NCI tumour cell line growth inhibition, 48 h
metricName: TGI

N#CC(C#N)=c1c(=O)c2c3ccccc3cc3cccc1c32    > 100 µM

// for each compound below, give its TGI
1. CC(C)(CN1CCCCC1)C(=O)/C=C/c1ccccc1
2. Cc1nnc2n1N=C(c1cc(F)c(Cl)cc1Cl)/C(=C/c1ccc(-c3ccc([N+](=O)[O-])cc3)o1)S2
3. Nc1ccccc1N

["34.7 µM", "> 100 µM", "> 100 µM"]

// for each compound below, give its TGI
1. C[N+]1([O-])C2CCC1CC(OC(=O)C(CO)c1ccccc1)C2 (stereo unspecified)
2. C/C=C1/CC(C(=O)OC)N(C(=O)OCc2ccccc2)C1=S (stereo unspecified)

1: > 100 µM; 2: > 100 µM

---

Would you mind telling me the reported TGI of each entry?
Test system: HCT-15 colon
testName: NCI tumour cell line growth inhibition, 48 h
Where a SMILES comes first, the peptide text is derived from it. Bridges are numbered along the chain shown (N, C = ends). The star is where a group is joined. Cbz = O=C(OCc1ccccc1)*

Example entries and their recorded answers appear below.
C=CC1(C)CCC2C(=CCC3C2(C)CC(O)C(O)C3(C)COC2OC(CO)C(O)C(O)C2O)C1 (stereo not given)    > 100 µM
N#CCCNc1nonc1-c1nc2ccccc2n1CC(=O)c1ccc(N)cc1    > 100 µM
OCC(O)COCn1cc(Cn2ncc3c(SCc4ccccc4)ncnc32)nn1 (stereo not given)    > 100 µM
CCN(Cc1ccc(OC)cc1)c1ccc(CO)c(Cl)c1    > 100 µM
O=C1c2ccccc2C(=O)N1/N=C1/SC(=Nc2ccccc2)C(=Nc2ccccc2)N1c1ccccc1    > 100 µM

// for each molecule below, give its TGI
1. CC(=O)OCC1OC(N2C(=O)[C@@H](Oc3ccccc3)[C@H]2/C=C/c2ccccc2)C(OC(C)=O)C(OC(C)=O)C1OC(C)=O (stereo not given in full)
2. Clc1ccc(Cc2nc3ccccc3o2)cc1
3. O=S1OC(c2ccccc2)(c2ccccc2)C(c2ccccc2)(c2ccccc2)O1
4. COC1=C(C(c2cc(OC)c(OC)c(OC)c2)c2cc3c(cc2OC)OCO3)C(=O)OC1 (stereo not given)
5. CCCN(CCC)C(=S)Sc1nc(C)nc(N2CCN(c3nc(C)nc(SC(=S)N(CCC)CCC)c3[N+](=O)[O-])CC2)c1[N+](=O)[O-]
6. NC(N)=N/N=C/c1c(-c2ccccc2[N+](=O)[O-])nc2sccn12
7. CN(C)CCNC(=O)c1cc2c3cc(Cl)ccc3[nH]c2c2ncccc12
8. COC(=O)C(=O)C(C#N)c1nc2ccccc2s1 (stereo not given)

["> 100 µM", "> 100 µM", "> 100 µM", "> 100 µM", "32.1 µM", "> 100 µM", "4.9 µM", "> 100 µM"]

// for each molecule below, give its TGI
1. COc1cc2nc(-c3cccs3)nc(Nc3cccc([N+](=O)[O-])c3)c2cc1OC
2. N#CC1=C(N)Oc2c(sc3c(Br)cccc23)C1c1ccc([N+](=O)[O-])cc1 (stereo not given)
3. Nc1ccccc1N
4. COc1cc2nc3n(c2cc1OC)C(O)c1c(Cl)nc(SC)nc1S3 (stereo not given)
5. COc1cc(/C=C/C(=O)c2cccc(-n3cc(-c4ccccc4)[nH]c3=O)c2)cc(OC)c1OC
6. CC(=O)/C(=C\c1ccc(Cl)cc1)c1ccccc1
7. CNC(=O)C1CCCCNC(=O)CCC(NC(=O)OCc2ccccc2)C(=O)N1 (stereo not drawn) (Cbz-Glu-Lys-NHMe; lactam 1-2; configuration not given here)

31.8 µM
10.5 µM
> 100 µM
12.3 µM
5.7 µM
> 100 µM
> 100 µM

---

Would you mind telling me the reported TGI of each entry?
System: NCI-H226 lung
testName: NCI tumour cell line growth inhibition, 48 h

COC(=O)NC(=O)NC(Cc1ccccc1)NC(=O)OCc1ccccc1 (centres undefined)    > 100 µM
CCCCCCCCCCCCCCCCOCC(COP(=O)(O)OCC1OC(n2cc(CC)c(=O)[nH]c2=O)CC1O)OC(=O)CCCCCCCCCCCCCCC (centres undefined)    > 100 µM

// for each compound below, give its TGI
1. O=c1nc2n(-c3cccc(Cl)c3)c3ccc([N+](=O)[O-])cc3cc-2c(=O)[nH]1
2. CC(C#N)(c1ccccc1)N(CCc1ccccc1)C(=O)Oc1ccccc1 (centres undefined)
3. O=C1CSC(c2c[nH]c3ccccc23)N1c1cccc(Cl)c1 (centres undefined)
4. COc1cc([C@@H]2c3cc4c(cc3[C@H](OC3OC5COC(c6ccco6)OC5C(O)C3O)C3COC(=O)[C@@H]32)OCO4)cc(OC)c1OC (some centres undefined)
5. COc1ccc(C2=NN(C(N)=S)C(c3ccc4c(c3)OCO4)C2)cc1 (centres undefined)
6. COc1ccc2c(-c3csc(-c4c[nH]c5ccc(Br)cc45)n3)c[nH]c2c1
7. Cc1ccc(S(=O)(=O)NNC(=O)Nc2cccc(C(F)(F)F)c2)cc1

["13.6 µM", "> 100 µM", "> 100 µM", "> 100 µM", "6.84 µM", "> 100 µM", "> 100 µM"]

// for each compound below, give its TGI
1. CC(=O)/C(=C\c1ccc(Cl)cc1)c1ccccc1
2. O=C1c2ccccc2C(=O)N1/N=C1/SC(=Nc2ccccc2)C(=Nc2ccccc2)N1c1ccccc1
3. COC(=NC(C)C)NC(C)C

1: > 90.1 µM; 2: > 100 µM; 3: > 100 µM
